From: ChEMBL document CHEMBL4680206

target: Histamine H3 receptor (Homo sapiens); test: Agonist activity at human H3 receptor expressed in CHO cells assessed as […] by measuring reduction in forskolin level incubated for 4 hrs by CRE/MRE-luciferase reporter gene assay
PROPERTY MEASURED: EC50 (nM)
Report as a plain number; the unit nM is understood.

Entry under review: N=C(N)SCCc1cnc[nH]1 . Reported EC50? 2.9

* * *

molecular target: UniProt Q9Y5N1; test: Displacement of [3H]Nalpha-methylhistamine from recombinant human histamine H3 receptor stably transfected in HEK-293T cells membrane incubated for 90 mins by scintillation counting method; format: cell membranes, Cell membrane
PROPERTY MEASURED: Kd (nM)
Unit nM implied. Number only.

Look at this compound and give its reported Kd. CC1=CC(C)=[N+]2C1=C(c1ccc(OCCCN3CCCCC3)cc1)c1c(C)cc(C)n1[B-]2(F)F 1.9

* * *

biological target: Histamine H3 receptor (Homo sapiens, UniProt Q9Y5N1); experiment: Displacement of [3H]Nalpha-methylhistamine from recombinant human histamine H3 receptor stably transfected in HEK-293T cells membrane incubated for 90 mins by scintillation counting method
Sequence (Q9Y5N1 whole entry): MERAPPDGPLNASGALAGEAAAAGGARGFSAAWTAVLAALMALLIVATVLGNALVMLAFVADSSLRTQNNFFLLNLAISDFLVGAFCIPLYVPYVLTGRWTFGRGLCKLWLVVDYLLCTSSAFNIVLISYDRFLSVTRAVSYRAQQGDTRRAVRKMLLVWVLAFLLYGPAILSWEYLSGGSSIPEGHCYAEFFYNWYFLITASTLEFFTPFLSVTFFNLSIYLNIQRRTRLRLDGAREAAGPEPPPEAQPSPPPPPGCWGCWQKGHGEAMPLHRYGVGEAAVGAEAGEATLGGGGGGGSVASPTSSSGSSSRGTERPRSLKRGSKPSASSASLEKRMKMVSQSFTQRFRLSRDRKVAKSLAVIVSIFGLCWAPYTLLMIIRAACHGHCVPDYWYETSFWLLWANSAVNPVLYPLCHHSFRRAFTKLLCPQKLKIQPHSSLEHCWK
PROPERTY MEASURED: Ki (µM)
Field: numeric (µM). Do not append units.

What Ki appears in the records for this compound with Histamine H3 receptor (Homo sapiens, UniProt Q9Y5N1)? COc1cc(NC2(c3cccc(Cl)c3)C(=O)N(C(C)(C)C)C(=O)C2=Cc2ccccc2)cc(OC)c1OC (stereo unspecified) 3.2
